Values from paper PMC8233136

# target or test system: human ABCB4 (Homo sapiens)
# Construct: made in house; host or cells: Pichia pastoris (chromosomally integrated)
# Sequence (P21439 1-1279 isoform P21439-2): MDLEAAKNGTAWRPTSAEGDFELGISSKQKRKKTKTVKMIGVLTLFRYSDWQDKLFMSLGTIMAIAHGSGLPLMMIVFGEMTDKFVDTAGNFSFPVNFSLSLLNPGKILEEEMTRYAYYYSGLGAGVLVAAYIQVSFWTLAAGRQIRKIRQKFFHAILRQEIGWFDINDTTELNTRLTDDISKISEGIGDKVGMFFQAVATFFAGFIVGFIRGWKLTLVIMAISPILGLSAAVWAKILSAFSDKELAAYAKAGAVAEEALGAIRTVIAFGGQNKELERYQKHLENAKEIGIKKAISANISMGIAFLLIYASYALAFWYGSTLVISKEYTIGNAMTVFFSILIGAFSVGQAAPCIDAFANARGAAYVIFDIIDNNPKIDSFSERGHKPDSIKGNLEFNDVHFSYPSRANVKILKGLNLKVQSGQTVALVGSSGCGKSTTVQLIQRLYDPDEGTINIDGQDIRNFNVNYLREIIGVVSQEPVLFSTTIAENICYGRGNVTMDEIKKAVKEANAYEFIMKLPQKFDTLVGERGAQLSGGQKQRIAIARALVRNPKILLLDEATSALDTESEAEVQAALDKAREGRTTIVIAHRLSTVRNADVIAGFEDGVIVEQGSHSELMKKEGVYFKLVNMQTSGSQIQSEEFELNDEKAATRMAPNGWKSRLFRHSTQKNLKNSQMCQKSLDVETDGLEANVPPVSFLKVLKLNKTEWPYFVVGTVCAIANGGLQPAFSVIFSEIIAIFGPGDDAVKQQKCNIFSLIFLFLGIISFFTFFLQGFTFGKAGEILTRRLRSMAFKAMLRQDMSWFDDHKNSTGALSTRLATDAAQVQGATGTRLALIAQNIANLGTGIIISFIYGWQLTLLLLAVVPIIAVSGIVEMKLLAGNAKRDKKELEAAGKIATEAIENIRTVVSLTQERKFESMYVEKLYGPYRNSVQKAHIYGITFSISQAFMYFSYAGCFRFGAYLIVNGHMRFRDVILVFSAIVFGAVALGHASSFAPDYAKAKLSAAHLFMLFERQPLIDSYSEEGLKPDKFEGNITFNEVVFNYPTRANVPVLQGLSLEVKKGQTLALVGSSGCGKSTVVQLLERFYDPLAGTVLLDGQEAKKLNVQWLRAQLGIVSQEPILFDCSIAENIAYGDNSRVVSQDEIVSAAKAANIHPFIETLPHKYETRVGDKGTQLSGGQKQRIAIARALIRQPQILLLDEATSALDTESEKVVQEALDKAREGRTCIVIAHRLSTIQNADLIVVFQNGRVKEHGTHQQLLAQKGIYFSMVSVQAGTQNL
# assay protocol: ATP hydrolysis (malachite green) of detergent-solubilized, purified ABCB4: modulation of basal ATPase activity
# Type: biochemical
# protocol conditions: EC50 (μM), stimulation of basal ATPase activity, allosteric sigmoidal fit; 0-1,000 μM
quantity: EC50

                                test_smiles  quantity  experimental_result
0  C[C@H](CCC(=O)NCCS(=O)(=O)O)[C@H]1CC[C@H]2[C@@H]3[C@H](O)C[C@@H]4C[C@H](O)CC[C@]4(C)[C@H]3C[C@H](O)[C@]12C      EC50               114 µM
